target: UniProtKB A3EZJ3; assay: Binding affinity against Hepatitis C virus NS3 protease; parameters: species or system Hepacivirus hominis
Sequence (A3EZJ3 whole entry): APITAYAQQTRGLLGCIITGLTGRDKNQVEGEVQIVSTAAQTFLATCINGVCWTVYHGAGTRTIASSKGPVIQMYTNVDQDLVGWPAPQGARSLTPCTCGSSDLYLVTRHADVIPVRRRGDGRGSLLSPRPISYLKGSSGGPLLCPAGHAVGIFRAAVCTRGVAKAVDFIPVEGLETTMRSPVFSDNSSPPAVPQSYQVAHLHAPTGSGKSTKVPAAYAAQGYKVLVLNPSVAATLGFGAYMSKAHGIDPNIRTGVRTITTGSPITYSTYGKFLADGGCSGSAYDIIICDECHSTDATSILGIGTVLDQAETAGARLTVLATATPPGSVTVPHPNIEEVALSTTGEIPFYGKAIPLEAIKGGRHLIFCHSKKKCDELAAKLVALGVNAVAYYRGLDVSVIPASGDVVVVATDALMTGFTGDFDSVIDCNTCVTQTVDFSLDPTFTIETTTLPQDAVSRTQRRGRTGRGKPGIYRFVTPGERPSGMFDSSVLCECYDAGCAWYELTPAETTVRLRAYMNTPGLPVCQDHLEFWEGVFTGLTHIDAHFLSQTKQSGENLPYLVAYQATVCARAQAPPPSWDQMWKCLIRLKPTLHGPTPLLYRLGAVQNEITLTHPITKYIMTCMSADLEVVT
measured_metric: Ki (µM)
// units = µM; emit number, no label

Reference set (4 entries):
• CCCN(NC(=O)[C@H]1CCCN1C(=O)[C@@H](NC(=O)[C@@H](NC(=O)[C@H](CC(=O)O)NC(=O)[C@H](CCC(=O)O)NC(=O)[C@@H](NC(=O)[C@H](CC(=O)O)NC(C)=O)[C@@H](C)O)C(C)C)C(C)C)C(=O)Oc1ccc(Cl)cc1 = 16
• CCCN(NC(=O)[C@H]1CCCN1C(=O)[C@@H](NC(=O)[C@@H](NC(=O)[C@H](CC(=O)O)NC(=O)[C@H](CCC(=O)O)NC(C)=O)C(C)C)C(C)C)C(=O)Oc1ccc([N+](=O)[O-])cc1 = 6
• CCCN(NC(=O)[C@H]1CCCN1C(=O)[C@@H](NC(=O)[C@@H](NC(=O)[C@H](CC(=O)O)NC(=O)[C@H](CCC(=O)O)NC(=O)[C@@H](NC(=O)[C@H](CC(=O)O)NC(C)=O)[C@@H](C)O)C(C)C)C(C)C)C(=O)Oc1ccccc1[N+](=O)[O-] = 9
• CCCN(NC(=O)[C@H]1CCCN1C(=O)[C@@H](NC(=O)[C@@H](NC(=O)[C@H](CC(=O)O)NC(=O)[C@H](CCC(=O)O)NC(=O)[C@@H](NC(=O)[C@H](CC(=O)O)NC(C)=O)[C@@H](C)O)C(C)C)C(C)C)C(=O)OCC(Cl)(Cl)Cl = 14

Bench note: what Ki did CCN(NC(=O)[C@H]1CCCN1C(=O)[C@@H](NC(=O)[C@@H](NC(=O)[C@H](CC(=O)O)NC(=O)[C@H](CCC(=O)O)NC(=O)[C@@H](NC(=O)[C@H](CC(=O)O)NC(C)=O)[C@@H](C)O)C(C)C)C(C)C)C(=O)OC(Cl)C(Cl)(Cl)Cl (stereo not given in full) show?
0.9

So what does the record say about Ki for "CCCN(NC(=O)[C@H]1CCCN1C(=O)[C@@H](NC(=O)[C@@H](NC(=O)[C@H](CC(=O)O)NC(=O)[C@H](CCC(=O)O)NC(=O)[C@@H](NC(=O)[C@H](CC(=O)O)NC(C)=O)[C@@H](C)O)C(C)C)C(C)C)C(=O)Oc1ccc([N+](=O)[O-])cc1" ?
2

Entry "CCCN(NC(=O)[C@H]1CCCN1C(=O)[C@@H](NC(=O)[C@@H](NC(=O)[C@H](CC(=O)O)NC(=O)[C@H](CCC(=O)O)NC(=O)[C@@H](NC(=O)[C@H](CC(=O)O)NC(C)=O)[C@@H](C)O)C(C)C)C(C)C)C(=O)N[C@@H](CO)C(=O)N[C@@H](CCSC)C(=O)N[C@@H](CO)C(=O)N[C@@H](Cc1ccc(O)cc1)C(=O)N[C@H](C(=O)N[C@@H](Cc1c[nH]c2ccccc12)C(=O)N[C@H](C(=O)NCC(=O)N[C@@H](CCCCN)C(=O)O)[C@@H](C)O)[C@@H](C)O" has what Ki?
10

Entry "CCCN(NC(=O)[C@H]1CCCN1C(=O)[C@@H](NC(=O)[C@@H](NC(=O)[C@H](CC(=O)O)NC(=O)[C@H](CCC(=O)O)NC(=O)[C@@H](NC(=O)[C@H](CC(=O)O)NC(C)=O)[C@@H](C)O)C(C)C)C(C)C)C(=O)OCc1ccccc1" has what Ki?
80

Numbers sourced from ChEMBL document CHEMBL1135259.
